Overview of reported inhibition across a group of compounds:
EXPERIMENTAL_SYSTEM: Receptor-type tyrosine-protein kinase FLT3 (Homo sapiens) (UniProt P36888)
Sequence (P36888 whole entry): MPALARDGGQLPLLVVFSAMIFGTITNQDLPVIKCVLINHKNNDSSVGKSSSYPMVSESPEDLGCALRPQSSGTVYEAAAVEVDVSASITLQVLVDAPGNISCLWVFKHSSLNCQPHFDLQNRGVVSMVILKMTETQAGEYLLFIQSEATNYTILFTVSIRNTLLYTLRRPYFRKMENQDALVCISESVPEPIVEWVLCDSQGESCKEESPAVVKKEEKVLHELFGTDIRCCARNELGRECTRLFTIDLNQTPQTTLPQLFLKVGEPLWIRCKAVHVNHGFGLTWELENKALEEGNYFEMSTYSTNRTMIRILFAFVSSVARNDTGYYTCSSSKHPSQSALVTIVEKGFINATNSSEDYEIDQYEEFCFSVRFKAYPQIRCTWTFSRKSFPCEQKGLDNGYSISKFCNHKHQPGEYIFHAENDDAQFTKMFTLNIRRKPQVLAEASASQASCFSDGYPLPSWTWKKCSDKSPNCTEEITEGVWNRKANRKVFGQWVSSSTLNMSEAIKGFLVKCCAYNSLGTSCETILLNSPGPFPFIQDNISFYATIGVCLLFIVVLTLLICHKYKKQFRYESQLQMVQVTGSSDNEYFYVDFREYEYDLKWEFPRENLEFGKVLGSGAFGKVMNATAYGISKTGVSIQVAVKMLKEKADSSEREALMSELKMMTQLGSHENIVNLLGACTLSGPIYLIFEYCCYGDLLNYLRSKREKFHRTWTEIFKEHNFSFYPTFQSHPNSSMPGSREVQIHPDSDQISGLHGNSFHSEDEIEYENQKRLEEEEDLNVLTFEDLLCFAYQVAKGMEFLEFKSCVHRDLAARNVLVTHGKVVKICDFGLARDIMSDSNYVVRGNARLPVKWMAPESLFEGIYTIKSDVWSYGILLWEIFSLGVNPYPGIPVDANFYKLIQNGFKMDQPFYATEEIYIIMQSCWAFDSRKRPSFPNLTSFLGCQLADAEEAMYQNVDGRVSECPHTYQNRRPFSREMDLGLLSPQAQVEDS
REPORTED_CONDITIONS: at 1 µM
Provide the reading as a plain figure in %.

Examples with answers:
NC(=O)c1cc(-c2ccncc2)cc(-c2ccccc2)c1N | 4.55
NCc1ccc(-n2c(-c3nonc3N)nc3cnccc32)cc1 | 3.45
CCN(CC)Cc1ccc(Nc2nccc(-c3cnn4ncccc34)n2)cc1 | 47.7
C[C@@H](Oc1cc(-n2cnc3ccc(OCC4CCN(C)CC4)cc32)sc1C(N)=O)c1ccccc1Cl | 16.1
COc1cc(N2CCN(C(C)C)CC2)ccc1Nc1nc(Nc2ccc(F)cc2C(=O)NC[C@@H](O)CO)c2cc[nH]c2n1 | 2.54

Please turn your attention to the following entry.
Recall the reported inhibition of "CN(C)CCOc1ccc(-c2cc(-c3ccc4c(c3)CCC4=NO)c(-c3ccncc3)o2)cc1" when tested on Receptor-type tyrosine-protein kinase FLT3 (Homo sapiens) (UniProt P36888).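 Also: values are mean percent inhibition of FLT3 kinase activity.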
-1.89

* * *

EXPERIMENTAL_SYSTEM: Fibroblast growth factor receptor 3 (Homo sapiens) (UniProt P22607);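 also: values reported are mean percent inhibition of FGFR3 activity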
Sequence (P22607 23-806 limits assumed): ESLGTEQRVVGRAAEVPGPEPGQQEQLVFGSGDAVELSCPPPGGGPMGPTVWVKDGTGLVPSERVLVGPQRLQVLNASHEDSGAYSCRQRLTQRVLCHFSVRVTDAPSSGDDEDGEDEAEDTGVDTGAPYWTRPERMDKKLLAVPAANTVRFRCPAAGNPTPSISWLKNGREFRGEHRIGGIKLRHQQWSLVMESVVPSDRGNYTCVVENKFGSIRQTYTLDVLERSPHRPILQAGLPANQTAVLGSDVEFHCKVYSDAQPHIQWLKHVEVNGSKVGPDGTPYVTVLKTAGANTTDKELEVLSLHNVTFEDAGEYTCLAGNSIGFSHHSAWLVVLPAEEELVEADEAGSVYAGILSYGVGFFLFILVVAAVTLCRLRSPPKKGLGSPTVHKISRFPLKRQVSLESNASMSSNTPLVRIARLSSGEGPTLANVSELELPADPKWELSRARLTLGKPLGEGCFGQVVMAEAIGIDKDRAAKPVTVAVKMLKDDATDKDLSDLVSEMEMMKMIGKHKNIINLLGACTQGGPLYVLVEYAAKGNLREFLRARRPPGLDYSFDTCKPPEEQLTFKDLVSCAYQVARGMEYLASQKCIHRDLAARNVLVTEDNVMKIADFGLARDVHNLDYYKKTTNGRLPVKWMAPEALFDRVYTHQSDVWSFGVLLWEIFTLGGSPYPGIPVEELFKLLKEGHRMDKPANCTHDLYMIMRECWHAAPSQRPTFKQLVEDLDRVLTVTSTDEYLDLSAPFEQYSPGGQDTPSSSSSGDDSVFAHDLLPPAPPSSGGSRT
REPORTED_CONDITIONS: at 1 µM
MEASUREMENT_TYPE: inhibition

Examples with answers:
O=C1Nc2ccc(I)cc2C1=Cc1cc(Br)c(O)c(Br)c1 | 5.73%
COc1cccc(/C=N/Nc2ncnc3c2cnn3-c2cccc(OC)c2)c1 | 5.11%
COc1cc(N2CCN(C(C)C)CC2)ccc1Nc1nc(Nc2ccc(F)cc2C(=O)NC[C@@H](O)CO)c2cc[nH]c2n1 | 3.63%

Please turn your attention to the following entry.
Note down inhibition recorded for "CN(C)CCCNc1nccc(-c2c(-c3ccc(F)cc3)nn3cc(C(F)(F)F)ccc23)n1"
-0.97%

* * *

System: Platelet-derived growth factor receptor alpha (Homo sapiens), P16234 [T674I]
Sequence (P16234 whole entry T674I): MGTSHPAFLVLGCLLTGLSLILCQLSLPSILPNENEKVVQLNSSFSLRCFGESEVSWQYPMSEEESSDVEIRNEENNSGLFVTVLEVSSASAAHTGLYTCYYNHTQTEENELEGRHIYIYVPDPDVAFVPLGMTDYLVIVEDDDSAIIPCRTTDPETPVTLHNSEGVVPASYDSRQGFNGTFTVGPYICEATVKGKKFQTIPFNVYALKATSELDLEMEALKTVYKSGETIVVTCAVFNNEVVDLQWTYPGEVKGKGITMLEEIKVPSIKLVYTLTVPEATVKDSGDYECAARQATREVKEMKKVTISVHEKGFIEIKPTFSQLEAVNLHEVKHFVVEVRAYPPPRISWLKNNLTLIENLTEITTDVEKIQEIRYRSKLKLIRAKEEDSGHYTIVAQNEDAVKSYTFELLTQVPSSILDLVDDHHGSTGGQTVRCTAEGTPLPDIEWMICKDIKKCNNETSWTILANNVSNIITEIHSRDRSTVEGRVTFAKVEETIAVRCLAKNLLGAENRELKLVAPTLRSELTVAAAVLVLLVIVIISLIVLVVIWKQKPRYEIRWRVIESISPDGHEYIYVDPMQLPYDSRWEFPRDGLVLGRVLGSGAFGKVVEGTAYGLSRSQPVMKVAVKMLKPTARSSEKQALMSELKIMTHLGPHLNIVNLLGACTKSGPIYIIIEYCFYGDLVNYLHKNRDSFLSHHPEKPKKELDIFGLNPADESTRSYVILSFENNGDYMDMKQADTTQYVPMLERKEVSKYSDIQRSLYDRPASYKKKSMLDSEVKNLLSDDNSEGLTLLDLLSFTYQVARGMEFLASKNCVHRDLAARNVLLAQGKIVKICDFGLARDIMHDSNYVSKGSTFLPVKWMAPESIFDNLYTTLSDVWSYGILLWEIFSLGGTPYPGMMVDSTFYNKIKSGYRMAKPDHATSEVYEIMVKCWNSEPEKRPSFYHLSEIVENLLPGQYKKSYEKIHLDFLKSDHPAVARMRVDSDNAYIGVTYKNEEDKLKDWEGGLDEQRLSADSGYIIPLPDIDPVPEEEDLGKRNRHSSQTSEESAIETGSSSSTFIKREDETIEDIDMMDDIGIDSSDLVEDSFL
REPORTED_CONDITIONS: at 0.1 µM
Overview of reported inhibition across a group of compounds:
Provide the reading as a plain figure in %.

CCS(=O)(=O)c1ccc(OC)c(Nc2ncc(-c3cccc(-c4ccccc4F)c3)o2)c1 | 3.61
Cc1nnc(-c2ccc(C)c(-c3ccc(C(=O)NCc4ccc(Cl)cc4)cc3)c2)o1 | 6.19
CCc1cccc(CC)c1/C=C/c1cncc(C(=O)NC)c1 | 2.23

Please turn your attention to the following entry.
Note down inhibition recorded for "O=C1Nc2ccc(I)cc2C1=Cc1cc(Br)c(O)c(Br)c1"
2.82

* * *

EXPERIMENTAL_SYSTEM: Dual specificity protein kinase TTK (Homo sapiens) (UniProt P33981);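 also: reported figures are mean TTK inhibition at 1 µM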
Sequence (P33981 whole entry): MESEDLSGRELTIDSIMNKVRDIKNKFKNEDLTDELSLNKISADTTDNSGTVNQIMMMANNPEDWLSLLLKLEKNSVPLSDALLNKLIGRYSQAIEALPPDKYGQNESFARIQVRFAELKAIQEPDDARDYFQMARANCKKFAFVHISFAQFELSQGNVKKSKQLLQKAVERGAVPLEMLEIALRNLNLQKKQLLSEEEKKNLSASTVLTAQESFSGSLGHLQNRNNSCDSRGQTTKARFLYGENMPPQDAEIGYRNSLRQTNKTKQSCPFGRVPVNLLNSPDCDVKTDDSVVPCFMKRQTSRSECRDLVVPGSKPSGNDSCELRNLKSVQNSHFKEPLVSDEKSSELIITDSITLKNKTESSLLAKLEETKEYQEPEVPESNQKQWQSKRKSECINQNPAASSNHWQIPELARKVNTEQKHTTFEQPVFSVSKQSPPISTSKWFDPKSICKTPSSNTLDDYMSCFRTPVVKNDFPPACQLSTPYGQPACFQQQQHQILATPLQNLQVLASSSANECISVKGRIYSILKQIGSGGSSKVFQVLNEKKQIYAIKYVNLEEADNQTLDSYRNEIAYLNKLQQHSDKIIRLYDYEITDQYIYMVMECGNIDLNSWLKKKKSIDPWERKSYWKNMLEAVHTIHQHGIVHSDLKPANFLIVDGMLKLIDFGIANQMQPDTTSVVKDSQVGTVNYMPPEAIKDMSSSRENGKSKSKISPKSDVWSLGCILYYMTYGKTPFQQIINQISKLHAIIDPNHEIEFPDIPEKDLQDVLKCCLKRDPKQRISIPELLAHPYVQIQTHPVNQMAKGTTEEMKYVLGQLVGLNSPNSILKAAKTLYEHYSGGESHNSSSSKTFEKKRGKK
REPORTED_CONDITIONS: at 1 µM
MEASUREMENT_TYPE: inhibition (%)
Provide the reading as a plain figure in %.

Examples with answers:
COc1cc2ncn(-c3cc(OCc4cccs4)c(C(N)=O)s3)c2cc1OC | 7.37
CCS(=O)(=O)c1ccc(OC)c(Nc2ncc(-c3ccccc3Cl)o2)c1 | 9.34

Note down inhibition recorded for "CCN(CC)Cc1ccc(Nc2nccc(-c3cnn4ncccc34)n2)cc1"
29.4

Note down inhibition recorded for "N#Cc1ccc(Oc2nccc(-c3c(-c4ccc(F)cc4)ncn3C3CCNCC3)n2)cc1"
8.89

Note down inhibition recorded for "COc1cc2ncn(-c3cc(OCc4ccccc4C(F)(F)F)c(C(C)=O)s3)c2cc1OC"
8.19

Note down inhibition recorded for "NS(=O)(=O)c1ccc(N/N=C2\C(=O)Nc3ccc(-c4cnco4)cc32)cc1"
52.8

Note down inhibition recorded for "CN(C)CCOc1ccc(-c2cc(-c3ccc4c(c3)CCC4=NO)c(-c3ccncc3)o2)cc1"
1.15

Note down inhibition recorded for "O=C(Nc1n[nH]c2cc(-c3ccccc3)ccc12)C1CC1"
6.67

Note down inhibition recorded for "COc1ccc2ncn(-c3cc(O[C@H](C)c4ccccc4Cl)c(C(N)=O)s3)c2c1"
9.02

Note down inhibition recorded for "CN(C)CCCNc1nccc(-c2c(-c3ccc(F)cc3)nn3cc(C(F)(F)F)ccc23)n1"
8.76

Note down inhibition recorded for "NCc1ccc(-n2c(-c3nonc3N)nc3cnccc32)cc1"
10.1

Note down inhibition recorded for "CNC(=O)c1cncc(/C=C/c2c(C)cccc2C)c1"
5.33

Note down inhibition recorded for "Fc1ccc(-c2c(-c3ccncc3)nc3n2CCS3)cc1"
4.17

Note down inhibition recorded for "O=C(Nc1n[nH]c2nc(-c3ccc(O)cc3)c(Br)cc12)C1CC1"
15.3

Note down inhibition recorded for "COc1ccc(-c2ccc3c(NC(=O)C4CC4)n[nH]c3n2)cc1"
8.48

Note down inhibition recorded for "COc1ccc2cc(-c3c(-c4ccncc4)nc(-c4ccc(S(C)(=O)=O)cc4C)n3C)ccc2c1"
8.65
